Target: GRIP2_7, Q9C0E4
Sequence (Q9C0E4 934-1023): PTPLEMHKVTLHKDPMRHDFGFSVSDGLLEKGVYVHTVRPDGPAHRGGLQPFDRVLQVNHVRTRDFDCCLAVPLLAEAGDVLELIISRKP
Experiment: holdup assay
Parameters: key: below the threshold = too weak to quantify, mostly under pKd 3.1 to 4
Conditions: plain residues with an end cap or a label only (N-terminal biotin on a linker: ado-ado)

[
  {
    "binder": "KSRPENGTVC [TMEM178B, H3BS89]",
    "pKd": "below the threshold"
  },
  {
    "binder": "QLKSGRDSTV [TMEM178A, Q8NBL3]",
    "pKd": 3.55
  },
  {
    "binder": "THREVKFTSL [CD46, P15529]",
    "pKd": "below the threshold"
  },
  {
    "binder": "VISSDDLTEL [CAPN6, Q9Y6Q1]",
    "pKd": "below the threshold"
  }
]
